From: ChEMBL document CHEMBL2218924

// residual activity lookup, one value per entry
Tgt: Casein kinase II subunit alpha' (Homo sapiens) (UniProt P19784)
Sequence (P19784 whole entry, looked up): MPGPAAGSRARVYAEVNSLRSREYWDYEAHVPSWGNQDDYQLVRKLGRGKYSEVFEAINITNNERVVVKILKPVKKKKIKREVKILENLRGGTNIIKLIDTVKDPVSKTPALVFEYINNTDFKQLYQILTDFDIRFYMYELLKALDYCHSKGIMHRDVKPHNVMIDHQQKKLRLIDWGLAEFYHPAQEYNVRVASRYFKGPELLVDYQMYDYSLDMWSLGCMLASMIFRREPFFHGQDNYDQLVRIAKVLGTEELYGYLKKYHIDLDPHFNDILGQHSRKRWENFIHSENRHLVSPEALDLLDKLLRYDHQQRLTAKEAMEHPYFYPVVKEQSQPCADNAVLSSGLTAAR
Cond: at 10 µM
Write the number in % without appending the unit.

>  <Compound>
COc1cc2ncnc(N3CCN(C(=O)Nc4ccc(Oc5ccccc5)cc4)CC3)c2cc1OC

>  <Observed Measurement>
65

$$$$
>  <Compound>
NC(=O)c1ccc2[nH]c(-c3ccc(Oc4ccc(Cl)cc4)cc3)nc2c1

>  <Observed Measurement>
102

$$$$
>  <Compound>
Oc1ccc(-c2nc(-c3ccc(F)cc3)c(-c3ccncc3)[nH]2)cc1

>  <Observed Measurement>
97

$$$$
>  <Compound>
Cc1ccc(NC2=CC(=O)c3sc(C)nc3C2=O)cc1

>  <Observed Measurement>
107

$$$$
>  <Compound>
CN(C)c1ccc(/C=C2\C(=O)Nc3ccccc32)cc1

>  <Observed Measurement>
96

$$$$

Task: Please look up its residual activity: `O=C1NC(=O)/C(=C/c2ccc3c(c2)OC(F)(F)O3)S1`
Output: 0

Task: Please look up its residual activity: `O=C1NC(=O)c2c1c1c3ccccc3[nH]c1c1[nH]c3cc(Br)ccc3c21`
Output: 86
